- Tested on: HDAC6 enzyme (Homo sapiens)
- Construct: prepared by transducing full length HDAC1 and HDAC6 genes into Sf-9 insect cells; GST; purchased SignalChem; host or cells: Sf-9 insect cells
- Sequence (Q9UBN7 whole entry): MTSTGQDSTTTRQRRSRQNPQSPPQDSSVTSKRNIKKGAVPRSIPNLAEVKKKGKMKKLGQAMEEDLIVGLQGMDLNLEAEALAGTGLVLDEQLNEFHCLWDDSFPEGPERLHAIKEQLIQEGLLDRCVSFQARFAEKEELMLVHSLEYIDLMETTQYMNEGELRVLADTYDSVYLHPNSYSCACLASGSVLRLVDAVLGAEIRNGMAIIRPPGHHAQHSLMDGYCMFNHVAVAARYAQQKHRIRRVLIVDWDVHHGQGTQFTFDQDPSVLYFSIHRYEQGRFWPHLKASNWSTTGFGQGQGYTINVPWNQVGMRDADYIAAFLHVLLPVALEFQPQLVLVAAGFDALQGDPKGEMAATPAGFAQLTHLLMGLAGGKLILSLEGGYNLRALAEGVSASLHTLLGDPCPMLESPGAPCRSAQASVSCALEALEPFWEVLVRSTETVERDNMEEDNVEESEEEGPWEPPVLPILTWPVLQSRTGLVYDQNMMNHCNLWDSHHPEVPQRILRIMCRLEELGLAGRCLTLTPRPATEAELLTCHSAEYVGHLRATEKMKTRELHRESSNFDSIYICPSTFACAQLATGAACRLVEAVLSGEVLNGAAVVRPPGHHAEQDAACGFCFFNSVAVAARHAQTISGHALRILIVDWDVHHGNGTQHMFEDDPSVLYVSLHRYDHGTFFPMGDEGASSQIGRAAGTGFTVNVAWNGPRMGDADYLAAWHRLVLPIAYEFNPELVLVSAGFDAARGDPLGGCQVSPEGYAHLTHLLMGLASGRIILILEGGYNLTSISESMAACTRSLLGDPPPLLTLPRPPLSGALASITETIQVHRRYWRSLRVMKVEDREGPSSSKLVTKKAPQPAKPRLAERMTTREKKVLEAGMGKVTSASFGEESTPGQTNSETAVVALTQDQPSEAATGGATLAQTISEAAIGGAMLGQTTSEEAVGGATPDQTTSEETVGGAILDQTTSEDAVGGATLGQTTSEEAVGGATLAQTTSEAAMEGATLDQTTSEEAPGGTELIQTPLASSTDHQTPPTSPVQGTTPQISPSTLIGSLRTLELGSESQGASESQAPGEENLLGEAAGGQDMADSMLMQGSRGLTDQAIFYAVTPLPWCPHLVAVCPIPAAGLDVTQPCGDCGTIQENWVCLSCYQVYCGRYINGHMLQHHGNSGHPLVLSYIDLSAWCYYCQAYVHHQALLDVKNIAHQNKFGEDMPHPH
- Assay details: HDAC6 enzyme inhibitory assay (HDAC-Glo I/II Assay kit)
- Assay type: biochemical
- Experimental conditions: 1 μM test compound; 1 µM
Reported HDAC6 inhibitory rate (%) (1 μM) values are given for each entry in this list.
Readout label: HDAC6 inhibitory rate (%) (1 μM)

Molecule: O=C(NC[C@H]1COCCN1C(=O)N1CCCC1CCO)c1ccc(-c2noc(C(F)(F)F)n2)cc1 (stereo partly drawn)
Readout label: HDAC6 inhibitory rate (%) (1 μM)
Number: 88
--
Molecule: N#Cc1ccc(C(=O)N2CCOC[C@@H]2CNC(=O)c2ccc(-c3noc(C(F)(F)F)n3)cc2)cc1
Readout label: HDAC6 inhibitory rate (%) (1 μM)
Number: 99
--
Molecule: O=C(NC[C@H]1COCCN1C(=O)c1ccccc1N1CCOCC1)c1ccc(-c2noc(C(F)(F)F)n2)cc1
Readout label: HDAC6 inhibitory rate (%) (1 μM)
Number: 95

---

Item-by-item account of inhibition at 1 µM
- Tested on: HDAC6 enzyme (Homo sapiens)
- Construct: prepared by transducing full length HDAC1 and HDAC6 genes into Sf-9 insect cells; GST; purchased SignalChem; host or cells: Sf-9 insect cells
- Assay details: HDAC6 enzyme inhibitory assay (HDAC-Glo I/II Assay kit)
- Assay type: biochemical
- Experimental conditions: 1 μM test compound; read-out: HDAC6 inhibitory rate (%) (1 μM)

Molecule: CC(C)n1nccc1C(=O)N1CCOC[C@@H]1CNC(=O)c1ccc(-c2noc(C(F)(F)F)n2)cc1 [Example 84]
inhibition at 1 µM (%): 98
//
Molecule: O=C(NCC1COCCN1C(=O)c1cccc(C(F)(F)F)c1)c1ccc(-c2noc(C(F)(F)F)n2)cc1 (stereo not shown) [Example 27]
inhibition at 1 µM (%): 99
//
Molecule: O=C(NCC1c2ccccc2CN1C(=O)C1CC1)c1ccc(-c2noc(C(F)(F)F)n2)cc1 (stereo not shown) [Example 169]
inhibition at 1 µM (%): 84
//
Molecule: N#Cc1ccccc1C(=O)N1CCOCC1CNC(=O)c1ccc(-c2noc(C(F)(F)F)n2)cc1 (stereo in doubt) [Example 115]
inhibition at 1 µM (%): 94
//
Molecule: O=C(NCC1COCCN1C(=O)c1ccc2nccn2c1)c1ccc(-c2noc(C(F)(F)F)n2)cc1 (stereo not shown) [Example 20]
inhibition at 1 µM (%): 99
//
Molecule: O=C(NCC1COCCN1C(=O)c1ccccc1)c1ccc(-c2noc(C(F)(F)F)n2)s1 (stereo not shown) [Example 210]
inhibition at 1 µM (%): 96
//
Molecule: O=C(NCCO)c1cccc(C(=O)N2CCOC[C@@H]2CNC(=O)c2ccc(-c3noc(C(F)(F)F)n3)cc2)c1 [Example 271]
inhibition at 1 µM (%): 94

---

- Tested on: HDAC1 enzyme (Homo sapiens, UniProt Q13547)
- Construct: prepared by transducing full length HDAC1 and HDAC6 genes into Sf-9 insect cells; GST; purchased SignalChem; host or cells: Sf-9 insect cells
- Sequence (Q13547 whole entry): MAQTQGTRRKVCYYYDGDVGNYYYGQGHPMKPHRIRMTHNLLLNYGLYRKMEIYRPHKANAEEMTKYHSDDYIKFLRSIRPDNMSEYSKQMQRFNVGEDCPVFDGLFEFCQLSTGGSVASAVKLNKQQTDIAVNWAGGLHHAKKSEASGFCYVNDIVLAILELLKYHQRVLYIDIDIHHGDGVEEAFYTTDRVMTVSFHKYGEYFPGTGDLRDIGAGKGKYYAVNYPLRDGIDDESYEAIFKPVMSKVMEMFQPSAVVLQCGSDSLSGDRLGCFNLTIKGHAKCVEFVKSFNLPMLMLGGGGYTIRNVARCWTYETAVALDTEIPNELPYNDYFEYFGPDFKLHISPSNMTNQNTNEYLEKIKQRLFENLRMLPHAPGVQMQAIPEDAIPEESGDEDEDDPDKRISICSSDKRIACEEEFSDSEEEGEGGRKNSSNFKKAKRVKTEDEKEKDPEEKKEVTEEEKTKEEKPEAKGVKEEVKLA
- Assay details: HDAC1 enzyme inhibitory assay (HDAC-Glo I/II Assay kit)
- Format: biochemical
- Experimental conditions: 1 μM test compound; read-out: HDAC1 inhibitory rate (%) (1 μM)
In this scheme, each record receives a class according to its inhibition at 1 µM; the ranges are low value (below 10%), medium value (10% to below 20%), high value (20% or more)

Molecule: O=C(NC[C@H]1COCCN1C(=O)N1CCC2(CC1)COC2)c1ccc(-c2noc(C(F)(F)F)n2)cc1 [Example 282]
Class label: low value
--
Molecule: Cn1nc2ccccc2c1C(=O)N1CCOC[C@@H]1CNC(=O)c1ccc(-c2noc(C(F)(F)F)n2)cc1 [Example 82]
Class label: high value
--
Molecule: O=C(NCC1COCCN1C(=O)c1ccc(-c2ccccc2)cc1)c1ccc(-c2noc(C(F)(F)F)n2)cc1 (stereo not drawn) [Example 23]
Class label: high value
--
Molecule: O=C(NCC1COCCN1C(=O)c1cccnc1)c1ccc(-c2noc(C(F)(F)F)n2)cc1 (stereo not drawn) [Example 13]
Class label: medium value
--
Molecule: O=C(NC[C@H]1COCCN1C(=O)C1CCCC1)c1ccc(-c2noc(C(F)(F)F)n2)cc1 [Example 77]
Class label: medium value
--
Molecule: CN1CCC[C@H]1C(=O)N1CCOC[C@@H]1CNC(=O)c1ccc(-c2noc(C(F)(F)F)n2)cc1 [Example 270]
Class label: low value
--
Molecule: Cc1nn(C)c(C)c1C(=O)N1CCOC[C@@H]1CNC(=O)c1ccc(-c2noc(C(F)(F)F)n2)cc1 [Example 67]
Class label: low value
--
Molecule: O=C(NCC1COCCN1C(=O)c1cccc(F)c1)c1ccc(-c2noc(C(F)(F)F)n2)cc1 (stereo not drawn) [Example 4]
Class label: medium value
--
Molecule: Cc1cc(-c2noc(C(F)(F)F)n2)ccc1C(=O)NCC1COCCN1C(=O)c1ccccc1 (stereo not drawn) [Example 178]
Class label: low value
--
Molecule: O=C(NC[C@H]1COCCN1C(=O)c1ccncc1)c1ccc(-c2noc(C(F)(F)F)n2)cc1 [Example 48]
Class label: medium value
--
Molecule: O=C(NC[C@H]1COCCN1C(=O)c1ccnn1CCO)c1ccc(-c2noc(C(F)(F)F)n2)cc1 [Example 296]
Class label: high value
--
Molecule: Cc1csc(C(=O)N2CCOC[C@H]2CNC(=O)c2ccc(-c3noc(C(F)(F)F)n3)cc2)c1 [Example 145]
Class label: medium value
--
Molecule: N#Cc1cccc(C(=O)N2CCOC[C@@H]2CNC(=O)c2ccc(-c3noc(C(F)(F)F)n3)cc2)c1 [Example 44]
Class label: medium value
--
Molecule: O=C(NCC1COCCN1C(=O)c1ccccc1)c1ccc(-c2noc(C(F)(F)F)n2)s1 (single isomer, unassigned) [Example 257]
Class label: high value

---

- Tested on: HDAC6 enzyme (Homo sapiens)
- Construct: prepared by transducing full length HDAC1 and HDAC6 genes into Sf-9 insect cells; GST; purchased SignalChem; host or cells: Sf-9 insect cells
- Assay details: HDAC6 enzyme inhibitory assay (HDAC-Glo I/II Assay kit)
- Format: biochemical
- Experimental conditions: 1 μM test compound; read-out: HDAC6 inhibitory rate (%) (1 μM)
Each item that follows carries a reported inhibition at 1 µM.

Compound: O=C(NC[C@H]1COCCN1C(=O)N1CC2C(C1)C2(F)F)c1ccc(-c2noc(C(F)(F)F)n2)cc1 (some centres unmarked) [Example 309]
inhibition at 1 µM (%): 96
--
Compound: O=C(NC[C@@H]1COCCN1C(=O)C(c1ccccc1)c1ccccc1)c1ccc(-c2noc(C(F)(F)F)n2)cc1 [Example 129]
inhibition at 1 µM (%): 53
--
Compound: O=C(NC[C@@H]1COCCN1C(=O)c1cc[nH]n1)c1ccc(-c2noc(C(F)(F)F)n2)cc1 [Example 143]
inhibition at 1 µM (%): 93
--
Compound: O=C(NCC1COCCN1C(=O)c1cccnc1)c1ccc(-c2noc(C(F)(F)F)n2)s1 (centres unmarked) [Example 225]
inhibition at 1 µM (%): 92
--
Compound: O=C(NC[C@@H]1COCCN1C(=O)c1cc2ccccc2o1)c1ccc(-c2noc(C(F)(F)F)n2)cc1 [Example 125]
inhibition at 1 µM (%): 100
--
Compound: O=C(NCC1COCCN1C(=O)C1C2CC3CC(C2)CC1C3)c1ccc(-c2noc(C(F)(F)F)n2)s1 (centres unmarked) [Example 256]
inhibition at 1 µM (%): 99
--
Compound: O=C(NCC1COCCN1C(=O)C1(c2ccccc2)CCCCC1)c1ccc(-c2noc(C(F)(F)F)n2)s1 (centres unmarked) [Example 249]
inhibition at 1 µM (%): 83
--
Compound: O=C(NCC1COCCN1C(=O)C1CC1)c1ccc(-c2noc(C(F)(F)F)n2)cc1 (centres unmarked) [Example 24]
inhibition at 1 µM (%): 93
--
Compound: N#CC1(C(=O)N2CCOC[C@@H]2CNC(=O)c2ccc(-c3noc(C(F)(F)F)n3)cc2)CC1 [Example 55]
inhibition at 1 µM (%): 96
--
Compound: O=C(NC[C@@H]1COCCN1C(=O)C1CCOC1)c1ccc(-c2noc(C(F)(F)F)n2)cc1 (some centres unmarked) [Example 151]
inhibition at 1 µM (%): 90
--
Compound: O=C(NCC1c2ccccc2CN1C(=O)c1ccccc1)c1ccc(-c2noc(C(F)(F)F)n2)cc1 (centres unmarked) [Example 170]
inhibition at 1 µM (%): 80
--
Compound: O=C(NCC1CCc2ccccc2N1C(=O)c1ccccc1)c1ccc(-c2noc(C(F)(F)F)n2)cc1 (centres unmarked) [Example 173]
inhibition at 1 µM (%): 90
--
Compound: O=C(NCC1COCCN1C(=O)c1ccccc1Cl)c1ccc(-c2noc(C(F)(F)F)n2)cc1 (centres unmarked) [Example 6]
inhibition at 1 µM (%): 111
--
Compound: Cn1ccc(C(=O)N2CCOC[C@H]2CNC(=O)c2ccc(-c3noc(C(F)(F)F)n3)cc2)n1 [Example 137]
inhibition at 1 µM (%): 93
--
Compound: O=C(NCC1COCCN1C(=O)c1cccs1)c1ccc(-c2noc(C(F)(F)F)n2)cc1 (centres unmarked) [Example 15]
inhibition at 1 µM (%): 98
--
Compound: Cc1ccsc1C(=O)N1CCOC[C@H]1CNC(=O)c1ccc(-c2noc(C(F)(F)F)n2)cc1 [Example 146]
inhibition at 1 µM (%): 94
--
Compound: O=C(NCC1CCCN1C(=O)c1ccccc1)c1ccc(-c2noc(C(F)(F)F)n2)cc1 (centres unmarked) [Example 162]
inhibition at 1 µM (%): 97
--
Compound: O=C(NCC1COCCN1C(=O)c1cccs1)c1ccc(-c2noc(C(F)(F)F)n2)s1 (centres unmarked) [Example 241]
inhibition at 1 µM (%): 94
--
Compound: O=C(NC[C@H]1COCCN1C(=O)N1CCC(c2ccccc2)C1)c1ccc(-c2noc(C(F)(F)F)n2)cc1 (some centres unmarked) [Example 293]
inhibition at 1 µM (%): 90
--
Compound: COC[C@@H]1CCCN1C(=O)N1CCOC[C@@H]1CNC(=O)c1ccc(-c2noc(C(F)(F)F)n2)cc1 [Example 273]
inhibition at 1 µM (%): 87
--
Compound: O=C(NCC1COCCN1C(=O)CCc1ccccc1)c1ccc(-c2noc(C(F)(F)F)n2)cc1 (centres unmarked) [Example 22]
inhibition at 1 µM (%): 100
--
Compound: O=C(NCC1CCCCN1C(=O)c1ccccc1)c1ccc(-c2noc(C(F)(F)F)n2)cc1 (centres unmarked) [Example 163]
inhibition at 1 µM (%): 97
--
Compound: O=C(NCC1Cc2ccccc2CN1C(=O)C1CC1)c1ccc(-c2noc(C(F)(F)F)n2)cc1 (centres unmarked) [Example 174]
inhibition at 1 µM (%): 94

All values here come from patent US10081624B2.
